- target.desc: human Bradykinin B1 receptor (Homo sapiens)
- Construct: host or cells: CHO-K1
- Sequence (P46663 1-353): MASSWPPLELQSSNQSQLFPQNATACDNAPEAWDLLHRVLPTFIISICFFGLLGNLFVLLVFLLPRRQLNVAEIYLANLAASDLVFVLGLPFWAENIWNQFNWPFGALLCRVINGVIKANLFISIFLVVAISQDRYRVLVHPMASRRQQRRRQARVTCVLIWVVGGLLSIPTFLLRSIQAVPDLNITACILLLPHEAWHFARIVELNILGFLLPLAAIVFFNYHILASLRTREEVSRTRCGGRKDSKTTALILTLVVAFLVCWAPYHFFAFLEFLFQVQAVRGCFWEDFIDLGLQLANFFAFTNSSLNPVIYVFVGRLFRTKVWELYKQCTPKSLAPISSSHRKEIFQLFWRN
- protocol.text: Calcium flux Assay (FLIPR) with recombinant CHO-K1 cells expressing human Bradykinin B1 receptor, in presence (hB1 IC50) or absence (hB1 free IC50) of 0.1% BSA
- Format: cell-based
- experimental.parameters: in presence of 0.1% BSA, read-out: hB1 IC50
- Procedure: The potency to inhibit the Bradykinin B1 receptor was determined for the compounds of this invention in a cell-based fluorescent calcium-mobilisation assay. […] The change of the intracellular Ca^2+ concentration is monitored with a fluorescent plate reader FLIPR TETRA® (Molecular Devices). […] Peak fluorescence was used to determine the response to agonist obtained at each concentration of compound examples by the following equation: […]
pIC50: −log10 of the molar value.
attribute.measured: pIC50

P. CC(C)Oc1ccc(-c2ccc(NC(=O)C3(c4cccc(Cl)c4)CC3)cc2-c2nnn[nH]2)cn1
Q. COc1ccc(-c2ccc(NC(=O)C3(c4cc(F)ccc4F)CC3)cc2-c2nnn[nH]2)cc1OC
R. COc1ccc(-c2ccc(NC(=O)C3(c4ccc(F)c(Cl)c4)CC3)cc2-c2nnn[nH]2)cc1OC
S. CCOc1ccc(-c2ccc(NC(=O)C3(C4CCC(C)(C)CC4)CC3)cc2-c2nnn[nH]2)cn1
List the 4 compounds shown above, ordered by increasing pIC50. Returns: the labels listed in the requested order.
Q, R, P, S

---

- target.desc: human Bradykinin B1 receptor (Homo sapiens, UniProt P46663)
- Construct: host or cells: CHO-K1
- Sequence (P46663 1-353): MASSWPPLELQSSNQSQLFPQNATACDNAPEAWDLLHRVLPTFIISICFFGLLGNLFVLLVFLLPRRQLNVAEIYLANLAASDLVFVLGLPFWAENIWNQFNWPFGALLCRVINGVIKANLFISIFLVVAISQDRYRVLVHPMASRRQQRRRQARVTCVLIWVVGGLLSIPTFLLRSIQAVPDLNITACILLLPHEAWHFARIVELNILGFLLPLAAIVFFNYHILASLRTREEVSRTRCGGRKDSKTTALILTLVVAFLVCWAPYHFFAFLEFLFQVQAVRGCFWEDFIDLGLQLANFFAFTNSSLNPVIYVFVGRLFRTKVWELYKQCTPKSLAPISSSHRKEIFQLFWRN
- protocol.text: Calcium flux Assay (FLIPR) with recombinant CHO-K1 cells expressing human Bradykinin B1 receptor, in presence (hB1 IC50) or absence (hB1 free IC50) of 0.1% BSA
- Type: cell-based
- experimental.parameters: in absence of 0.1% BSA, read-out: hB1 free IC50
attribute.measured: IC50 (nM)

Example results:
1. CCCOc1ccc(-c2ccc(NC(=O)C3(c4ccc(C(F)(F)F)cc4)CC3)cc2-c2nnn[nH]2)cn1    4.98
2. CCOc1ccc(-c2ccc(NC(=O)C3(c4cc(F)ccc4F)CC3)cc2-c2nnn[nH]2)cn1    60.5
3. O=C(Nc1ccc(-c2ccnc(C(F)(F)F)c2)c(-c2nnn[nH]2)c1)C1(c2cccc(Cl)c2)CC1    422
4. CCC(F)(F)c1ccc(-c2ccc(NC(=O)C3(c4cccc(Cl)c4)CC3)cc2-c2nnn[nH]2)cn1    8.19
5. COc1cc(-c2ccc(NC(=O)C3(c4cccc(Cl)c4)CC3)cc2-c2nnn[nH]2)ccc1C(F)(F)F    18.9
6. CCOc1ccc(-c2ccc(NC(=O)C3(c4ccccc4)CC3)cc2-c2nnn[nH]2)cn1    45.7

a. COc1cc(C(F)(F)F)ccc1C1(C(=O)Nc2ccc(-c3ccc(C(F)(F)F)nc3)c(-c3nnn[nH]3)c2)CC1
b. CCOc1ncc(-c2ccc(NC(=O)C3(c4cccc(Cl)c4)CC3)cc2-c2nnn[nH]2)cn1
c. Cc1ccc(C2(C(=O)Nc3ccc(-c4ccc(C(C)(F)F)nc4)c(-c4nnn[nH]4)c3)CC2)c(F)c1
d. O=C(Nc1ccc(-c2ccc(C(F)(F)F)nc2)c(-c2nnn[nH]2)c1)C1(c2ccc(Cl)c(F)c2)CC1
e. O=C(Nc1ccc(-c2ccc(C(F)F)nc2)c(-c2nnn[nH]2)c1)C1(c2ccc(OC(F)(F)F)cc2F)CC1
Order the records by IC50, with each subsequent value no larger than the one before. Returns: the labels listed in the requested order.
a, b, d, c, e

P. COc1ccc(-c2ccc(NC(=O)C3(c4cccc(Cl)c4)CC3)cc2-c2nnn[nH]2)cc1C(F)(F)F
Q. Cc1ccc(C2(C(=O)Nc3ccc(-n4cc(C(F)(F)F)cn4)c(-c4nnn[nH]4)c3)CC2)c(F)c1
R. O=C(Nc1ccc(-c2ccc(C(F)(F)F)nc2)c(-c2nnn[nH]2)c1F)C1(c2ccc(F)c(F)c2)CC1
S. CCOc1ccc(-c2ccc(NC(=O)C3(c4cccc(Cl)c4)CC3)cc2-c2nnn[nH]2)cn1
Order the records by IC50, with each subsequent value no larger than the one before. Returns: the labels listed in the requested order.
R, P, Q, S
(R: 368 nM, P: 234 nM, Q: 26 nM, S: 16.1 nM)

The origin of these recorded values is patent US20210317092A1.
